Target: T1, human calcitonin receptor (human, UniProt P30988 25-474)
T1 sequence (looked up): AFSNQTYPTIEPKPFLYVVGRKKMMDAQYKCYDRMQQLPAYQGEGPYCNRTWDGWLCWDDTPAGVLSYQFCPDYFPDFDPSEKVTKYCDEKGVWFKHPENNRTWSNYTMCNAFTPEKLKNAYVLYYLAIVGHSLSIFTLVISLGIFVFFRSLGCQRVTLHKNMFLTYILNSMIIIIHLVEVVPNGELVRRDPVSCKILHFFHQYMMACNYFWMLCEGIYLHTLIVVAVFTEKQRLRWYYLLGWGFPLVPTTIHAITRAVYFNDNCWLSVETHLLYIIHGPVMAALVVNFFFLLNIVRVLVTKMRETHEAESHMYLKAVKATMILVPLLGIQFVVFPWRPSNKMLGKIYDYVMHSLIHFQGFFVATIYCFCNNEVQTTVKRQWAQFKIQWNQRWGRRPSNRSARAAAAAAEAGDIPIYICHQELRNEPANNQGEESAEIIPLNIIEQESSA
Assay: cell-based or functional assay
Numbered stars: 1 amine (or outer) side, 2 acyl side, 3 side chain; on linkers, the order of the positions; unused ones are H or OH. Bridge positions count the residues as written; N and C are the ends. Square brackets hold non-standard residues; d marks the D form. Side chains are listed from the residue outwards. Ends that are not written are not given here. * marks the point of attachment. C20 diacid = O=C(O)CCCCCCCCCCCCCCCCCCC(=O)*; C18 diacid = O=C(O)CCCCCCCCCCCCCCCCC(=O)*; γGlu = O=C(O)[C@H](CCC(=O)[*:2])N[*:1]; AEEA = NCCOCCOCC(=O)O

- BINDER: "{C20 diacid-γGlu}-KCNTATCATQRLANFLVHSSNNFGPILPPTNVGSNTY-NH2 (disulfide 2-7) [Peptide 112 (SEQ ID NO: 112)]"
  UNIT_ANNOTATION: "nM"
  EC50 (cAMP production): 1.33
- BINDER: "K([AEEA-AEEA-γGlu-C18 diacid])GGGKCNTATCATQRLANFLVHSSNNFGPILPPTNVGSNTY-NH2 (disulfide 6-11) [Peptide 7 (SEQ ID NO: 7)]"
  UNIT_ANNOTATION: "nM"
  EC50 (cAMP production): 2.16
- BINDER: "{C20 diacid-γGlu-AEEA-AEEA}-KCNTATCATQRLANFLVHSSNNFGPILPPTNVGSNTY-NH2 (disulfide 2-7) [Peptide 113 (SEQ ID NO: 113)]"
  UNIT_ANNOTATION: "nM"
  EC50 (cAMP production): 18.5
- BINDER: "{C18 diacid}-[γGlu][γGlu]GGGKCNTATCATQRLANFLVHSSNNFGPILPPTNVGSNTY-NH2 (disulfide 7-12) [Peptide 4 (SEQ ID NO: 4)]"
  UNIT_ANNOTATION: "nM"
  EC50 (cAMP production): 7.53
- BINDER: "K([AEEA-AEEA-γGlu-C18 diacid])CNTATCATQRLANFLVHSSNNFGPILPPTNVGSNTY-NH2 (disulfide 2-7) [Peptide 6 (SEQ ID NO: 6)]"
  UNIT_ANNOTATION: "nM"
  EC50 (cAMP production): 0.31
